Assay: Rat pharmacokinetics, unbound brain concentrations
Type: in vivo, Sprague-Dawley rats
Conditions: male, Sprague-Dawley, rat, brain (unbound), subcutaneous, 10 mg/kg
ENDPOINT LABEL: concentration at 5 h (nM)
# output: bare number, implied unit nM

Measured concentration at 5 h, FC(F)(F)c1ccc2c(c1)[C@@H]1CNC[C@H]2C1 : 530
